Entry source: PubChem BioAssay (NCI)

system: RXF 393 renal; assay: NCI-60 one-dose screen, 48 h (100 = growth as untreated, 0 = no growth, -100 = all killed); settings: 10 µM unless noted
Compounds without any hit were thinned out: in the full panel of roughly 83,000, 20% have a hit.
value_kind: growth (%)
Numbers only, in %.

# count of solved cases: 8
C[C@]12O[C@H](C[C@]1(O)CO)n1c3ccccc3c3c4c(c5c6ccccc6n2c5c31)CNC4=O | -90.2
CS(=O)(=O)N1CCc2c(-c3cnc(N)nc3)nc(N3CCOCC3)nc21 | -36.2
CCc1nc2cc(/C=C/C(=O)NO)c(F)cc2c(=O)n1CCc1ccccc1 | -21.3
COc1cc2ncnc(Nc3ccc(O)cc3)c2cc1OC | 82.3
COc1cc(Nc2ncc(F)c(Nc3ccc4c(n3)N(COP(=O)(O)O)C(=O)C(C)(C)O4)n2)cc(OC)c1OC | -79.9
CCc1cc2c(cc1N1CCC(N3CCOCC3)CC1)C(C)(C)c1[nH]c3cc(C#N)ccc3c1C2=O | -1.05
CS(=O)(=O)N1CCN(Cc2cc3nc(-c4cccc5[nH]ncc45)nc(N4CCOCC4)c3s2)CC1 | -23.3
Cc1cc2c(F)c(Oc3ncnn4cc(OC[C@@H](C)OC(=O)[C@H](C)N)c(C)c34)ccc2[nH]1 | 43.8

Let us move to another entry and its growth.
[ask] Which value of growth has been reported for COC(=O)C1=C(C(=O)OC)C23C=C(C)C1C2=C(C)C1(CC1)[C@@](C)(O)C3=O (some centres undefined) in the records?
[reply] -64.4

* * *

test system: HOP-62 NSCLC; assay: NCI-60 one-dose screen, 48 h (100 = growth as untreated, 0 = no growth, -100 = all killed); conditions: 10 µM unless noted
This is part of a sample that, as a whole, favours compounds with a hit. Of some 83,000 tested, about 20% had one in any assay.
Could you please report measured growth for the items listed next?
Answers are plain numbers, in %.

# count of solved cases: 5
COc1ccc(-c2cc3c(C)nc(N)nc3n(C3CCC(OCCO)CC3)c2=O)cn1 (stereo not drawn) | -21.9
O=C(c1c(F)ccc(NS(=O)(=O)N2CC[C@@H](F)C2)c1F)c1c[nH]c2ncc(-c3cnc(C4CC4)nc3)cc12 | 37.7
CCc1nc2cc(/C=C/C(=O)NO)ccc2c(=O)n1CCc1ccc(OC)cc1 | 16.6
Cc1cc(C)n(CC(=O)Nc2ccc(-c3nc4ccccc4s3)cc2)n1 | 105
COC(=O)C1=C(C(=O)OC)C23C=C(C)C1C2=C(C)C1(CC1)[C@@](C)(O)C3=O (stereo partly drawn) | -21.7

Look at each compound and report its growth.
1. Cc1cc2c(-c3nc4ccccn4c3NC34CC5CC(CC(C5)C3)C4)c(O)c(O)cc2c(O)c1-c1c(C)cc2c(-c3nc4ccccn4c3NC34CC5CC(CC(C5)C3)C4)c(O)c(O)cc2c1O
2. Cc1ccccc1Nc1nc2nonc2nc1Nc1cccc(C)c1C
3. CC(C)=CCc1cc2c(cc1O)C1=C(C(=O)C3=C(NCCS3(=O)=O)C1=O)C(C=C(C)C)O2 (stereo not drawn)

[reply]
1: 1.34; 2: 72.1; 3: 25.3

* * *

system: NCI-H522 lung; assay: NCI-60 one-dose screen, 48 h; settings: 10 µM unless noted
Compounds without any hit were thinned out: in the full panel of roughly 83,000, 20% have a hit. The source made the active and inactive calls. How the source made its calls: active means growth percent below 10; inactive means the rest.
Write down one outcome, taken from active, inactive

# count of solved cases: 10
COC(=O)c1[nH]cnc1/N=N/N(C)CCO | inactive
COc1ccc2nc3cc(Cl)ccc3c(Nc3ccc(N(C)C)cc3)c2c1 | inactive
CNC(=O)c1c(C)oc2cc(Oc3ncnc4cc(OC)c(OC)cc34)ccc12 | inactive
CC(C)CC(=O)Nc1n[nH]c2c1CN(C(=O)C1CCN(C)CC1)C2(C)C | active
CNS(=O)(=O)Nc1nccc(Cc2c(C)c3ccc(Oc4ncccn4)cc3oc2=O)c1F | inactive
O=C1CSC(c2c(F)cccc2Cl)N1NC(=O)C(O)(c1ccccc1)c1ccccc1 (stereo not given) | inactive
Cn1cc(-c2ncnc3ccc(-c4cnc(Cl)c(NS(C)(=O)=O)c4)cc23)c2ccccc21 | inactive
C=CC(=O)N1CCC[C@@H](n2nc(-c3ccc(Oc4ccccc4)cc3)c3c(N)ncnc32)C1 | active
CCCCOc1nc2cc(Cl)ccc2cc1/C=C/c1cc(/C=C/c2cc3ccc(Cl)cc3nc2OCCCC)n(-c2ccccc2)n1 | inactive
Cc1nc(N)sc1-c1ccnc(Nc2ccc(N3CCOCC3)cc2)n1 | inactive

[ask] Look up the recorded call for Cc1cnc(NC(=O)Nc2cc(Br)c(C)cc2OC[C@@H]2CNCCO2)cn1 in this test.
[reply] active

[ask] Look up the recorded call for CCCCCCCC12Cc3ccccc3C1=Nc1c(c3ccccc3n1C)C2=O (stereo not given) in this test.
[reply] inactive

[ask] Look up the recorded call for Cn1ccnc1C(=O)/C=C/c1ccc(CC(=O)Nc2ccc(Br)cc2)cc1 in this test.
[reply] active

[ask] Look up the recorded call for CC12O[C@H](C[C@@H](OC(=O)CCC(=O)O)[C@H]1O)n1c3ccccc3c3c4c(c5c6ccccc6n2c5c31)C(=O)NC4=O in this test.
[reply] inactive
